Test system: MDA-MB-231
testSummary: Growth inhibition of human MDA-MB-231 cells assessed as cell growth at 10 uM incubated for 48 hrs by sulforhodamine B assay relative to control
Type: functional
details: MDA-MB-231, 48 h, read-out: Activity

chemicalString: CC(C)[C@@]12C[C@@H](NC(=O)CO)[C@@](C)(O1)[C@@H]1CC[C@@H](C)[C@H]1[C@@H]2OC(=O)/C=C/c1ccccc1
growth at 10 µM / %: 97.2

chemicalString: C/C(=C\C(=O)O[C@H]1[C@@H]2[C@H](C)CC[C@H]2[C@]2(C)O[C@@]1(C(C)C)C[C@H]2NC(=O)CO)c1ccccc1
growth at 10 µM / %: 99.6

chemicalString: CC(C)[C@@]12C[C@@H](NC(=O)CO)[C@@](C)(O1)[C@@H]1CC[C@@H](C)[C@H]1[C@@H]2OC(=O)c1ccc2ccccc2c1
growth at 10 µM / %: 101

chemicalString: CC(C)[C@@]12C[C@@H](NC(=O)CO)[C@@](C)(O1)[C@@H]1CC[C@@H](C)[C@H]1[C@@H]2OC(=O)/C=C/C1CCCCC1
growth at 10 µM / %: 107

chemicalString: CC(C)[C@@]12C[C@@H](NC(=O)CF)[C@@](C)(O1)[C@@H]1CC[C@@H](C)[C@H]1[C@@H]2OC(=O)/C=C/c1ccccc1
growth at 10 µM / %: 102

====

Test system: Malme-3M
testSummary: Growth inhibition of human MALME-3M cells incubated for 48 hrs by sulforhodamine B assay
Type: functional
measuredQuantity: GI50 (µM)

chemicalString: CC(C)[C@@]12C[C@@H](NC(=O)CO)[C@@](C)(O1)[C@@H]1CC[C@@H](C)[C@H]1[C@@H]2OC(=O)/C=C/C1CCCCC1
boundSign: >
recordedValue: 44.7
--
chemicalString: CC(C)[C@@]12C[C@@H](NC(=O)CO)[C@@](C)(O1)[C@@H]1CC[C@@H](C)[C@H]1[C@@H]2OC(=O)/C=C/c1ccccc1
boundSign: =
recordedValue: 20.9
--
chemicalString: C/C(=C\C(=O)O[C@H]1[C@@H]2[C@H](C)CC[C@H]2[C@]2(C)O[C@@]1(C(C)C)C[C@H]2NC(=O)CO)c1ccccc1
boundSign: =
recordedValue: 26.3
--
chemicalString: CC(C)[C@@]12C[C@@H](NC(=O)CO)[C@@](C)(O1)[C@@H]1CC[C@@H](C)[C@H]1[C@@H]2OC(=O)c1ccc2ccccc2c1
boundSign: =
recordedValue: 16.2

====

testSummary: Growth inhibition of human SF295 cells incubated for 48 hrs by sulforhodamine B assay
Format: functional
details: SF-295, 48 h
measuredQuantity: GI50 (µM)

chemicalString: C/C(=C\C(=O)O[C@H]1[C@@H]2[C@H](C)CC[C@H]2[C@]2(C)O[C@@]1(C(C)C)C[C@H]2NC(=O)CO)c1ccccc1
unitAnnotation: µM
boundSign: =
recordedValue: 36.3
--
chemicalString: CC(C)[C@@]12C[C@@H](NC(=O)CO)[C@@](C)(O1)[C@@H]1CC[C@@H](C)[C@H]1[C@@H]2OC(=O)c1ccc2ccccc2c1
unitAnnotation: µM
boundSign: =
recordedValue: 16.2
--
chemicalString: CC(C)[C@@]12C[C@@H](NC(=O)CO)[C@@](C)(O1)[C@@H]1CC[C@@H](C)[C@H]1[C@@H]2OC(=O)/C=C/C1CCCCC1
unitAnnotation: µM
boundSign: >
recordedValue: 44.7
--
chemicalString: CC(C)[C@@]12C[C@@H](NC(=O)CO)[C@@](C)(O1)[C@@H]1CC[C@@H](C)[C@H]1[C@@H]2OC(=O)/C=C/c1ccccc1
unitAnnotation: µM
boundSign: =
recordedValue: 18.6
